# Test system: SH-SY5Y
# Experiment notes: Neuroprotective activity against rotenone/oligomycin-A-induced death in human SH-SY5Y cells assessed as increase of cell viability at 1 uM after 2 hrs by MTT assay
# Type: functional
Reported metric: Activity (%)
Kindly provide the numeric value in % only, without the unit symbol.

// query Activity value for entry "CC(C)(C)/[N+]([O-])=C/c1ccccc1"
69.6

Param item: "COc1cc(/C=[N+](\[O-])Cc2ccccc2)ccc1O"
63.9

Param item: "COc1cc(Br)c(/C=[N+](\[O-])C(C)(C)C)cc1OC"
63.1

Param item: "COc1ccc2c(c1)cc(/C=[N+](\[O-])C(C)(C)C)n2C"
62.8

Param item: "CC(C)(C)/[N+]([O-])=C/c1c[nH]c2ccccc12"
64.1

Param item: "CC(C)(C)/[N+]([O-])=C/c1cccnc1Cl"
61.4

Param item: "COc1cc(Br)c(/C=[N+](\[O-])Cc2ccccc2)cc1O"
64.2

Param item: "C/[N+]([O-])=C/c1ccccc1"
64.7

Param item: "COc1cc(Br)c(/C=[N+](\[O-])C(C)(C)C)cc1O"
65

Param item: "[O-]/[N+](=C\c1ccccc1)Cc1ccccc1"
70.8

Param item: "COc1cc(/C=[N+](\[O-])Cc2ccccc2)c(Br)cc1O"
62.8

Param item: "COc1cc(Br)c(/C=[N+](\[O-])Cc2ccccc2)cc1OC"
65.3

Param item: "CC(C)(C)/[N+]([O-])=C/c1cccnc1Br"
60.1

###

# Tested on: Mus musculus
# Experiment notes: Neuroprotective activity in NMRI mouse assessed as protection against t-BHP-induced lethality at 150 mg/kg, ip after 30 mins relative to control
# Type: functional
# Measurement setup: route intraperitoneal
For each of the compounds below, state its Activity.
Kindly provide the numeric value in % only, without the unit symbol.

// query Activity value for entry "COc1cc(Br)c(/C=[N+](\[O-])Cc2ccccc2)cc1OC"
116

Param item: "[O-]/[N+](=C\c1ccccc1)Cc1ccccc1"
111

Param item: "COc1cc(Br)c(/C=[N+](\[O-])C(C)(C)C)cc1O"
87

Param item: "COc1cc(Br)c(/C=[N+](\[O-])C(C)(C)C)cc1OC"
70

Param item: "CC(C)(C)/[N+]([O-])=C/c1cccnc1Br"
76

Param item: "CC(C)(C)/[N+]([O-])=C/c1c[nH]c2ccccc12"
60

Param item: COc1cc(/C=C/C(=O)CC(=O)/C=C/c2ccc(O)c(OC)c2)ccc1O [CURCUMIN]
106

Param item: "COc1cc(Br)c(/C=[N+](\[O-])Cc2ccccc2)cc1O"
111

Param item: "CC(C)(C)/[N+]([O-])=C/c1cccnc1Cl"
74

Param item: "CC(C)(C)/[N+]([O-])=C/c1ccccc1"
73

Param item: "COc1ccc2c(c1)cc(/C=[N+](\[O-])C(C)(C)C)n2C"
50

###

# Experiment notes: Antioxidant activity assessed as hydroxyl radical scavenging activity at 50 uM after 2 hrs by benzoic acid method
# Assay type: functional
Reported metric: Activity (%)
Kindly provide the numeric value in % only, without the unit symbol.

// query Activity value for entry "C/[N+]([O-])=C/c1ccccc1"
95.3

Param item: "CC(C)(C)/[N+]([O-])=C/c1ccccc1"
94.9

Param item: "COc1cc(Br)c(/C=[N+](\[O-])Cc2ccccc2)cc1OC"
95.1

Param item: "COc1cc(Br)c(/C=[N+](\[O-])Cc2ccccc2)cc1O"
94.6

Param item: "CC(C)(C)/[N+]([O-])=C/c1cccnc1Br"
95.1

Param item: "[O-]/[N+](=C\c1ccccc1)Cc1ccccc1"
95.7

Param item: "COc1cc(/C=[N+](/C)[O-])ccc1O"
96.5

Param item: "COc1cc(Br)c(/C=[N+](\[O-])C(C)(C)C)cc1OC"
96.3

Param item: Cc1c(C)c2c(c(C)c1O)CCC(C)(C(=O)O)O2 (stereo not given)
94.3

Param item: "CC(C)(C)/[N+]([O-])=C/c1cccnc1Cl"
94.9

Param item: "COc1cc(/C=[N+](\[O-])Cc2ccccc2)c(Br)cc1O"
95.7

Param item: "O=c1c(O)c(-c2ccc(O)c(O)c2)oc2cc(O)cc(O)c12"
96.6

Param item: "COc1cc(/C=[N+](\[O-])Cc2ccccc2)ccc1O"
96.9

Param item: "COc1cc(Br)c(/C=[N+](\[O-])C(C)(C)C)cc1O"
96.3

Param item: COc1cc(/C=C/C(=O)CC(=O)/C=C/c2ccc(O)c(OC)c2)ccc1O [CURCUMIN]
96.8
